Origin of the recorded values: paper PMC7704867

Peptide text beside a SMILES is read from it.
15N-S100A10-AnxA2Nter fusion protein (Homo sapiens) data, read-out Kd

compound: CC(=O)N[C@@H](CS)C(=O)N[C@@H](Cc1ccccc1)C(=O)N[C@@H](CC(C)C)C(=O)N[C@@H](Cc1c[nH]cn1)C(=O)N[C@@H](Cc1ccccc1)C(=O)NCC(=O)N[C@@H](CCCCN)C(=O)N[C@H](C(=O)NCC(=O)N[C@@H](CCC(=O)O)C(=O)N[C@@H](CO)C(=O)NCC(=O)N1CCC[C@H]1C(=O)N[C@@H](CC(C)C)C(=O)N[C@@H](CCC(N)=O)C(=O)O)[C@@H](C)O [Ac-SW-S/E] (Ac-CFLHFGKTGESGPLQ-OH)
experimental_system: 15N-S100A10-AnxA2Nter fusion protein (Homo sapiens)
unit_tag: µM
Kd: 1580

compound: CC(=O)N[C@@H](CS)C(=O)N[C@@H](Cc1ccccc1)C(=O)N[C@@H](CC(C)C)C(=O)N[C@@H](Cc1c[nH]cn1)C(=O)N[C@@H](Cc1ccccc1)C(=O)NCC(=O)N[C@@H](CCCCN)C(=O)N[C@@H](CCC(=O)O)C(=O)NCC(=O)N[C@@H](CO)C(=O)N[C@@H](CO)C(=O)NCC(=O)N1CCC[C@H]1C(=O)N[C@@H](CC(C)C)C(=O)N[C@@H](CCC(N)=O)C(=O)O [Ac-SW-T/E] (Ac-CFLHFGKEGSSGPLQ-OH)
experimental_system: 15N-S100A10-AnxA2Nter fusion protein (Homo sapiens)
unit_tag: µM
Kd: 2330

compound: CC(=O)N[C@@H](CS)C(=O)N[C@@H](Cc1ccccc1)C(=O)N[C@@H](CC(C)C)C(=O)N[C@@H](Cc1c[nH]cn1)C(=O)N[C@@H](C)C(=O)NCC(=O)N[C@@H](CCCCN)C(=O)N[C@H](C(=O)NCC(=O)N[C@@H](CO)C(=O)N[C@@H](CO)C(=O)NCC(=O)N1CCC[C@H]1C(=O)N[C@@H](CC(C)C)C(=O)N[C@@H](CCC(N)=O)C(=O)O)[C@@H](C)O [Ac-SW-F/A] (Ac-CFLHAGKTGSSGPLQ-OH)
experimental_system: 15N-S100A10-AnxA2Nter fusion protein (Homo sapiens)
unit_tag: µM
Kd: 2100

compound: CC(=O)N[C@@H](CS)C(=O)N[C@@H](Cc1ccccc1)C(=O)N[C@@H](CC(C)C)C(=O)N[C@@H](Cc1c[nH]cn1)C(=O)N[C@@H](Cc1ccccc1)C(=O)NCC(=O)N[C@@H](CCCCN)C(=O)N[C@H](C(=O)NCC(=O)N[C@@H](CO)C(=O)N[C@@H](CO)C(=O)NCC(=O)N1CCC[C@H]1C(=O)N[C@@H](CC(C)C)C(=O)N[C@@H](CCC(N)=O)C(=O)O)[C@@H](C)O [Ac-SW] (Ac-CFLHFGKTGSSGPLQ-OH)
experimental_system: 15N-S100A10-AnxA2Nter fusion protein (Homo sapiens)
unit_tag: µM
Kd: 880
